Ref: ChEMBL document CHEMBL5303304

- System: U2OS
- assay-text: Incucyte cell viability with U2OS; note: unitless GR value; below 1 slowed growth and below 0 cell loss
- Format: toxicity, cell-based
- measurement-setup: human, 6 h, 10 µM, compound concentration 10 uM, replicate number 1
Provide the reported Growth Rate of each item.
Give your answer as a number; write no unit.

If you can, please state the reported Growth Rate value of Cc1nn(-c2ccccc2)c(Nc2ccccc2C(=O)O)c1-c1cc2nccnc2c(F)c1F .
0.75

Quick check: Growth Rate of N#Cc1c(SCc2csc(-c3ccc(Cl)cc3)n2)nc(N2CCCC2)c(C#N)c1-c1ccc(OCCO)cc1 ?
0.87

Quick one: Growth Rate for COCCNc1cc(NC(=O)N2CCCc3cc(CN4CCOCC4=O)c(C=O)nc32)ncc1C#N ?
0.95

Returns the measured Growth Rate for the input compound. Input: Cc1ccccc1Oc1cc(-n2c(=O)cc(C(F)(F)F)[nH]c2=O)c2ccccc2c1Cl
0.02

So what does the record say about Growth Rate for CNC(=O)c1cc(C(=O)NC2CC2)cn(Cc2ccccc2)c1=O ?
0.54

Item Cc1ccc(S(=O)(=O)Nc2ccc(-n3nc(C(F)(F)F)cc3C(F)(F)F)cc2)cc1 has what recorded Growth Rate?
0.01

Endpoint output: Growth Rate of O=C([O-])c1cc2cc(Cc3cccnc3)ccc2o1.[Na+] . Value?
0.77

Field request: Growth Rate | item: O=C(Nc1cccc(Nc2nccc(Nc3cccc(C(F)(F)F)c3)n2)c1)C1CC1
-0.16

Query (compound): CN(C)C/C=C/C(=O)Nc1cc2c(Nc3ccc(F)c(Cl)c3)ncnc2cc1OC[C@@H]1CCCO1 ; field requested: Growth Rate
-0.2

// query Growth Rate value for entry O=S(=O)(Nc1ccc(C(O)(C(F)(F)F)C(F)(F)F)cc1)c1cccs1
0.58

Can you look up the measured Growth Rate of CC(=O)N1CCC(c2ccc(C(=O)NC3=NCCN3)cc2C(F)(F)F)CC1 for me?
0.82

Reported Growth Rate, compound CC(=O)O.Cc1cc2c(ncn2C2(C)CN(C(=O)c3ccn(CC4CCN([C@H]5C=CCCCC5)CC4)c3)C2)c(N)n1 : ____
0.96

What Growth Rate value was documented for this compound, CC(C)(C)S(=O)(=O)c1ccc2nccc(Nc3n[nH]c4ccc(F)cc34)c2c1 ?
0.95

I have this compound here, O=C(O)C(F)(F)F.O=C1NC(=O)/C(=C/c2c[nH]c(=O)c(-c3ccc(N4CCNCC4)nc3)c2)S1 , and I need its recorded Growth Rate.
0.54

Quick one: Growth Rate of CCc1cc2c(cc1-c1cccc(S(=O)(=O)F)c1)C(C)(C)c1[nH]c3cc(C#N)ccc3c1C2=O ?
0.58

Data request, read-out Growth Rate, for Cc1cnc(Nc2ccc(C(=O)N3CCN(C)CC3)cc2)nc1N[C@@H]1CCC[C@@H]1C(N)=O
0.41

Which Growth Rate is reported for this compound? Cc1cn([C@@H](C)CC#N)c(=O)c2cc(Cn3nc(C(F)F)cc3Cl)nn12
0.19

What value of Growth Rate has been recorded for this entry: CC(C)c1nc2c(c3c1[C@@H](c1ccc(C(F)(F)F)cc1)OC31CCOCC1)[C@@H](O)CC(C)(C)C2.Cl
0.88

====

- Tested on: HEK-293T
- assay-text: Incucyte cell viability with HEK293T; note: unitless GR value; below 1 slowed growth and below 0 cell loss
- Type: toxicity, cell-based
- measurement-setup: human, 18 h, 10 µM, compound concentration 10 uM, replicate number 1
For each entry below, report its Growth Rate value.
Respond using a number only.

# value lookup — system HEK-293T, readout Growth Rate, item CCN(C(=O)CO)[C@H]1CN(/C(=N\C#N)Nc2cccc(OC(F)F)c2)N=C1c1ccc(Cl)c(Cl)c1
0.96

Param readout = Growth Rate; param system = HEK-293T; param query = Cc1c(N2CCNCC2)nc2ccc(Br)cc2c1C(=O)NC[C@H](CCC(=O)O)c1ccccc1Cl ; response: value
0.76

# value lookup — system HEK-293T, readout Growth Rate, item CN1C(=O)Cc2ccc(-c3ccc(C[C@@H](C#N)NC(=O)[C@@H]4N[C@H]5CC[C@@H]4C5)c(F)c3)cc21
0.19

What Growth Rate appears in the records for this molecule with HEK-293T? COP(=O)(CCC(N)C(=O)O)Oc1cccc(CC(=O)O)c1 (stereo not drawn)
0.94

Can you look up Growth Rate on HEK-293T for CC(C)(C#Cc1ccc(NC(=O)COc2ccccc2C(=O)c2ccccc2)c(Cl)c1)C(=O)O ?
0.78

Test system HEK-293T; read-out Growth Rate; what value for COc1nc2ccc([C@@](O)(c3ccccc3)C3CCN(C(C)=O)CC3)cc2c(Cl)c1Cc1ccc(-n2cccn2)cc1 ?
0.37

Which measured Growth Rate belongs to O=C1NC(=Nc2c(Cl)cccc2Cl)S/C1=C\c1ccc2nccnc2c1 , tested on HEK-293T?
0.44

// lookup Growth Rate | system=HEK-293T | key= Cn1cc(-c2ccc(N(C(=O)NCc3ccccc3)[C@H]3CC[C@H](Nc4ccc(C#N)cn4)CC3)cc2)ccc1=O
-0.21

Kindly state the measured Growth Rate obtained for C=C1/C(=C\C=C2/CCC[C@]3(C)[C@@H]([C@H](C)CCCC(C)(C)O)CC[C@@H]23)C[C@@H](O)C[C@@H]1O with HEK-293T.
0.44

Any idea what Growth Rate came out for O=C(Nc1ccc(Cl)nc1)c1ccc(Cl)cc1 on HEK-293T?
0.59

Observed Growth Rate on HEK-293T for CCCS(=O)(=O)Nc1ccc(F)c(Nc2ncnc3cnc(-n4cnc(C)c4)nc23)c1F , please.
0.75

Lookup: Growth Rate / HEK-293T / Cl.O=C(c1ccc(-c2ccc(Cl)cc2)o1)N(Cc1ccccn1)c1ccc(N2CCNCC2)cc1
0.76

// map CC(C=CC1=C(C)CCCC1(C)C)=CC=CC(C)=CC(=O)O to recorded Growth Rate (system: HEK-293T)
0.94

Give recorded Growth Rate with HEK-293T for the following molecule: CC(C)c1cnc(NC(=O)Cc2ccccc2)s1
0.8

Field: Growth Rate (HEK-293T). Entry: CC(C)(O)c1cn(-c2ccc(-c3cccc(S(C)(=O)=O)c3)cc2)c(C(C)(C)c2ccccc2Cl)n1
0.81

Please state recorded Growth Rate (tested on HEK-293T) of CCCNc1ccc2ncc(-c3ccncc3)n2n1
-0.11

# returns recorded Growth Rate (system: HEK-293T) for CC1(C)Cc2nc(C3CCCC3)c([C@@H](F)c3ccc(C(F)(F)F)cc3)c(C3CCCCC3)c2[C@@H](O)C1
0.88

Item CC[C@@]1(c2ccccc2)NC(=O)N(Cc2ccccc2)C1=O with HEK-293T - Growth Rate?
0.95

====

Kindly state Growth Rate for each of the entries shown.
- Test system: U2OS
- assay-text: Incucyte cell viability with U2OS; note: unitless GR value; below 1 slowed growth and below 0 cell loss
- Assay type: toxicity, cell-based
- measurement-setup: human, 6 h, 10 µM, compound concentration 10 uM, replicate number 2
Answer with a bare number; do not write a unit.

# input compound: N[C@@H](Cn1cc(F)c(=O)[nH]c1=O)C(=O)O ; wanted: its Growth Rate
0.7

Look at this compound and give its reported Growth Rate. Clc1ccc(-c2nc3sccn3c2/C=N/OCc2ccc(Cl)c(Cl)c2)cc1
0.91

For the compound O=c1c(Br)ccc2n1C[C@@H]1CNC[C@H]2C1 , what Growth Rate is on record?
0.92

What value of measured Growth Rate is listed for CN1CCCN(C(=O)c2cccc(-c3ccc(/C=C4/C(=O)Nc5ccc(Cl)cc54)o3)c2)CC1 ?
-0.6

Find the recorded Growth Rate belonging to Cc1nc2c(cc1F)c(-c1nnc3c(n1)NC(=O)C3(C)C)nn2Cc1cccc(F)c1F and report it.
0.58

Need Growth Rate, item Cl.Clc1ccc(OC[C@H]2CCN2)cn1
0.54

====

Kindly supply the reported Growth Rate values for the records listed here.
- Test system: U2OS
- assay-text: Incucyte cell viability with U2OS; note: unitless GR value; below 1 slowed growth and below 0 cell loss
- Type: toxicity, cell-based
- measurement-setup: human, 6 h, 10 µM, compound concentration 10 uM, replicate number 2
// return just the number, without any unit appended

Quick check: Growth Rate of Cc1nc2ccccc2c(-c2ccc3c4c(ccnc24)CCO3)c1[C@H](OC(C)(C)C)C(=O)O ?
0.42

Which Growth Rate value is on record for COc1ccc(OC)c(-c2ccc(NC(=O)c3ccncc3F)cc2)c1 ?
0.63

Query: Growth Rate; subject: O=S(=O)(Nc1nnc2cc(OCC34CC5CC(CC(C5)C3)C4)c(C3CC3)cn12)C1CC1
0.37

Need Growth Rate, item COc1ccc(CC(=O)NC(N/C(=N/C#N)Nc2cccc3ncccc23)C(C)(C)C)cc1OC (centres undefined)
0.31

So what does the record say about Growth Rate for C[C@]12CC[C@@H]3c4ccc(O)cc4CC[C@H]3[C@@H]1C[C@H]1OC(=O)C[C@]12O ?
-0.19

Request the reported Growth Rate associated with C[C@@H]1C[C@H](C)CN(c2ncc(Cl)c(Nc3ccc4c(c3)cc(OC(C)(C)C(=O)O)c(=O)n4C)n2)C1
-0.32

Which Growth Rate is reported for this compound? CCCS(=O)(=O)Nc1ccc(F)c(Nc2ncnc3cnc(-n4cnc(C)c4)nc23)c1F
0.61

For CCN(CC)C/C=C/C(=O)Nc1cc2c(Nc3ccc(F)c(Cl)c3)ncnc2cc1OCC1CC1 , what is its reported Growth Rate?
0.36

Form field: reported Growth Rate of Cc1ccc(S(=O)(=O)O)cc1.Cn1cc(Nc2nccc(N3CC4CCC(C3)N4C(=O)[C@@H]3CC3(F)F)n2)cn1
0.95
